# TARGET OR SYSTEM: T1, huCDH19(44-772), Flag-tagged, on 293T cells (human, UniProt Q9H159 44-772)
# T1 construct: Expressed with native leader (1-43) followed by a Flag tag; leader left out; also called Hu EC1-5
# ASSAY NOTES: FACS, transfected 293T
OUTCOME MEASURE: binding result

Lookup result for hu anti-<huCDH19> 4A9 (1-468)(F55I,A56G) VH::huIgG1z / 4A9 (1-239)(F47L) VL::huLLC-C1 (Ab ID 14057) (antibody, V domains shown, Engineered variant of 4A9) VH: QVQLQESGPGLVKPSETLSLTCTVSGGSISGYYWSWIRQPPGKGLEWIGYFSYSGSTNYNPSLKSRVTLSVDTSKNQFSLKLSSVTAADTAVYYCARNWAFHFDFWGQGTLVTVSS VL: QSVLTQPPSVSGAPGQRVTISCTGSSSNIGTGYAVHWYQQLPGTAPKLLIYGNNNRPSGVPDRFSGSKSGTSASLAITGLQAEDEADYYCQSYDSRLSGWVFGGGTKLTVLG ; measured binding result: binds

Consider hu anti-<huCDH19> 4A2 (1-472)(Q17E,H47P) VH::huIgG1z / 4A2 (1-236)(N30Q,T102A) VL::huKLC (Ab ID 14026) (antibody, V domains shown, Engineered variant of 4A2) VH: QVQLQESGPGLVKPSETLSLTCTVSGGSISSSGYYWSWIRQPPGKGLEWIGYIYYTGSAYYNPSLKSRVTISVDTSKNQFSLKLSSVTAADTAVYYCARDGSSGWYFQYWGQGTLVTVSS VL: EIVLTQSPGTLSLSPGERATLSCRASRQISSSYLAWYQQKPGQAPRLLIYGPSSRATGIPDRFSGSGSGTDFTLTISRLEPEDFAVYYCQQYGSSFTFGPGTKVDIKR . Its measured binding result is binds

The reported binding result of the binder hu anti-<huCDH19> 4B10 (1-471)(R17G) VH::huIgG1z / 4B10 (1-236)(H45Q,A90T) VL::huKLC (Ab ID 14054) (antibody, V domains shown, Engineered variant of 4B10) VH: QVQLVESGGGVVQPGGSLRLSCAASGFTFSSYDMHWVRQAPGKGLEWVAVISYDGTNEYYADSVKGRFTISRDTSKNTLYLQMNSLRAEDTAVYYCARERYFDWSFDYWGQGTLVSVSS VL: EIVLTQSPGTLSLSPGERATLSCRASQSVSNTYLAWYQQRPGQAPRLLIYGASSRATGIPDRFSGSGSGTDFTLTISSLEPEDFAVYYCQQYSNSWTFGQGTKVEIKR was binds
